Test: X-ray powder diffraction (XRPD) of salt screen and scale-up products
Assay type: physicochemical
Conditions: salt screen; Grind, ACN
parameter-measured: XRPD Pattern

Known results for molecules:
molecule="CC(=O)O [Acetate]" parameter_measured="XRPD Pattern" observed_result="API A"
molecule="O=C(O)CCC(=O)C(=O)O [Ketoglutarate]" parameter_measured="XRPD Pattern" observed_result="API A + NC"
molecule="O=S(=O)(O)CCO [Isethionate]" parameter_measured="XRPD Pattern" observed_result="API A + NC"
molecule="CC(C)C(=O)O [Isobutyrate]" parameter_measured="XRPD Pattern" observed_result="API A"

Switching to the query record.
Specify XRPD Pattern for O=CO [Formate] and stop. API A
